Hello, the source for this data is patent US12195427B2, in case you need it.

Biological target: UniProtKB O00187
Sequence (O00187 445-686): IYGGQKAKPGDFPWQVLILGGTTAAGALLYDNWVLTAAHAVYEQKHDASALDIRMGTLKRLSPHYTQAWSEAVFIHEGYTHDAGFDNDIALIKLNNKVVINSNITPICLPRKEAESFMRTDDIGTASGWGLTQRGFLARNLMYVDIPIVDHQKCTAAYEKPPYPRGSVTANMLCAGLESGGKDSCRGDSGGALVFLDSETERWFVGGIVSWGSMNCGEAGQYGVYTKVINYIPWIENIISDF
Sequence (O00187 364-432 partner): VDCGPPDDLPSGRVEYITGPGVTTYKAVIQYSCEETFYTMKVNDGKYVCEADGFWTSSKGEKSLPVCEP
Test: MASP-2 co-crystallization, X-ray crystallography and structure analysis (H-bonds, van der Waals contacts)
Conditions: Table A6-1 pharmacophore angle
Description: This example illustrates the preparation of recombinant MASP-2 protein, based on UniProt O00187, human mannan-binding lectin serine protease 2. Expression constructs for human MASP-2 CCP2-SP and CCP2-SP-6HIS were generated for recombinant expression in E. coli cells. […]
Where a name gives a salt, the structure may show the parent alone.
REPORTED METRIC: a(C3, CA1, O1)

molecule="Cc1nc(N)ccc1CNC(=O)[C@H](C)NC(=O)[C@H]1C[C@H](Cc2cc(Cl)cc(Cl)c2)CN1 [compound 1435, Dihydrochloride]" assay_result=149.49
molecule="Cc1nc(N)ccc1CNC(=O)[C@H](C)NC(=O)[C@H]1C[C@H](Cc2ccccc2-c2ccccc2)CN1 [compound 1373, Di-trifluoroacetate salt]" assay_result=149.81
molecule="Cc1nc(N)ccc1CNC(=O)C(C)NC(=O)[C@H]1C[C@H](c2cccc(-c3ccccc3)c2)CN1 (stereo in doubt) [compound 1360]" assay_result=150.18
molecule="Cc1nc(N)ccc1CNC(=O)[C@H](C)NC(=O)[C@H]1C[C@H](Cc2cccc(-c3ccccc3)c2)CN1 [compound 1406]" assay_result=149.47
molecule="Cc1nc(N)ccc1CNC(=O)[C@H](C)NC(=O)[C@H]1C[C@H](Cc2ccc(-c3ccccc3)cc2)CN1 [compound 1351]" assay_result=149.86
molecule="Cc1nc(N)ccc1CNC(=O)C(C)NC(=O)C1CC(c2cccc3ccccc23)CCN1.Cl.Cl (centres unmarked) [1297_3]" assay_result=150.32
molecule="Cc1nc(N)ccc1CNC(=O)[C@H](C)NC(=O)[C@H]1C[C@H](Cc2cccc(Cl)c2)CN1.Cl.Cl [1328_4]" assay_result=151.05
molecule="Cc1nc(N)ccc1CNC(=O)[C@H](C)NC(=O)[C@H]1C[C@@H](c2cccc3ccccc23)CCN1.Cl.Cl [1297_4]" assay_result=149.60
molecule="Cc1nc(N)ccc1CNC(=O)[C@H](C)NC(=O)[C@H]1C[C@@H](c2cccc3ccccc23)CCN1.Cl.Cl [1297_5]" assay_result=150.41
molecule="Cc1nc(N)ccc1CNC(=O)[C@H](C)NC(=O)[C@H]1C[C@@H](c2ccccc2)CCN1 [compound 1253, Dihydrochloride]" assay_result=149.95
molecule="Cc1nc(N)ccc1CNC(=O)[C@H](C)NC(=O)[C@H]1C[C@@H](c2ccccc2)CCN1C [compound 1441]" assay_result=148.89
molecule="CC(=O)Nc1ccc(CCN[C@H](CCc2ccccc2)C(=O)N[C@@H](C)C(=O)NCc2ccc(N)nc2C)cc1 [compound 1368, Dihydrochloride]" assay_result=149.59
molecule="Cc1nc(N)ccc1CNC(=O)[C@H](C)NC(=O)[C@H]1C[C@H](Cc2cccc(Cl)c2)CN1.Cl.Cl [1328_3]" assay_result=150.74
molecule="Cc1nc(N)ccc1CNC(=O)C(C)NC(=O)C1CC(c2cccc3ccccc23)CCN1.Cl.Cl (centres unmarked) [1297_6]" assay_result=150.35
